# System: Plasma
# experiment_notes: Total plasma concentration in C57Bl/6 mouse at 300 mg/kg, po
# Format: ADME, organism-based
# test_settings: in vivo
metric_name: concentration (µM)
Just the number please, in µM, no unit attached.

Prompt line: Can you share its concentration? I mean this compound: COc1cc(-c2cccc(C(F)(F)F)c2)c(F)cc1-c1nccc2cc(S(=O)(=O)Nc3ccon3)ccc12
Response line: 137

====

# target_desc: Sodium channel protein type 1 subunit alpha (Homo sapiens, UniProt P35498)
# experiment_notes: Inhibition of human Nav1.1 expressed in HEK293 cells assessed as reduction in peak inward current by ionworks quattro electrophysiology assay
metric_name: IC50 (µM)
Reply numerically in µM, unit not repeated.

Prompt line: Requested read-out IC50, target or system Sodium channel protein type 1 subunit alpha (Homo sapiens, UniProt P35498), entry COc1cc(-c2cccc(C(F)(F)F)c2)c(F)cc1-c1nccc2cc(S(=O)(=O)Nc3ccon3)ccc12
Response line: 17
